Assay: Compound was evaluated for total growth inhibition of 60 cell lines in NCI screen
Type: functional
Kindly state TGI for each of the entries shown.
Answers are plain numbers, in nM.

// solved cases for TGI follow
COC(=O)/C=C/C1=CN2C(=O)c3cc(OC)c(OC)cc3N=C[C@@H]2C1
1320
COc1cc2c(cc1OC)C(=O)N1C=C(/C=C/C(=O)N(C)C)C[C@H]1C=N2
96
COc1cc2c(cc1OC)C(=O)N1C=C(/C=C/C(N)=O)C[C@H]1C=N2
3720

Could you now consider this next molecule?
Q) Fill blank: measured TGI of the molecule Cc1ccc2c(c1O)NC(O)C1CC(/C=C/C(N)=O)=CN1C2=O (centres undefined) is ____.
A) 610
